Target: Recombinant human FAP (Homo sapiens)
Construct: purchased R&D systems
Sequence (Q12884 whole entry): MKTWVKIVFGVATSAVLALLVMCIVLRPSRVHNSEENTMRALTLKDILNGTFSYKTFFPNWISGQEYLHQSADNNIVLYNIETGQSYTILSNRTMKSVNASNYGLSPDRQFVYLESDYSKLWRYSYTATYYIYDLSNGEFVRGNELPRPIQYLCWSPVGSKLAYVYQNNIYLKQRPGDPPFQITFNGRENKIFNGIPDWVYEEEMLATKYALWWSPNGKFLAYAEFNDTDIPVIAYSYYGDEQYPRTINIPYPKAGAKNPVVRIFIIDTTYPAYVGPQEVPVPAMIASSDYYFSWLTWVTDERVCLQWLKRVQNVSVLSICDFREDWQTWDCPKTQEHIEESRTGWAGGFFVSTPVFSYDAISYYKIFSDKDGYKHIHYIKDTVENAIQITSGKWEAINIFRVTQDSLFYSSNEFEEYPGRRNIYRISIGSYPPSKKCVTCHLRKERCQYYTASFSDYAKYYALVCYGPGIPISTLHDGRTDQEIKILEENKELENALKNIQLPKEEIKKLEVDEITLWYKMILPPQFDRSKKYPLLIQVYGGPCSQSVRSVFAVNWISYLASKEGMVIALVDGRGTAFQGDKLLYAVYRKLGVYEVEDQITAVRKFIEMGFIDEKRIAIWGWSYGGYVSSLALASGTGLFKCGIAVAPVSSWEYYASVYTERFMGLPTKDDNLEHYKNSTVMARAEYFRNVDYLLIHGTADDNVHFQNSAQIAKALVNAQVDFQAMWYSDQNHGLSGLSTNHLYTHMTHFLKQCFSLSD
Assay: FAP FRET assay, FGF21-sequence FRET peptide substrate
Assay type: biochemical
Details: FRET peptide with human FGF21 sequence, 6 μM, 37° C.
readout-label: log10(IC50) (log10 of the value in nM)
# log10 transformed; quantity=IC50; unit=nM

smiles-notation	endpoint-value
COc1cccc2cc(N(C)C3CCN(CC(=O)N4C[C@@H](F)C[C@H]4C#N)CC3)cnc12	0.88
N#C[C@@H]1C[C@H](F)CN1C(=O)CN1CCC(Nc2ccc(C(=O)Nc3ccccc3)c3ncccc23)CC1	0.11
Cc1cc(N[C@@H]2CCN(CC(=O)N3CCC[C@H]3C#N)C2)cc2cccnc12	0.76
N#C[C@@H]1C[C@H](F)CN1C(=O)CN1CC[C@H](Nc2ccc(OC(F)(F)F)c3ncccc23)C1	0.08
CN(Cc1ccccc1)C(=O)c1ccc(NC2CCN(CC(=O)N3CCC[C@H]3C#N)CC2)c2cccnc12	1.59
N#C[C@@H]1C[C@H](F)CN1C(=O)CN1CC[C@@H](Nc2ccnc3c(Cl)cccc23)C1	1.00

# context switch: different compound, same log10(IC50)
Exercise: log10(IC50) of CN(C)C(=O)c1ccc(NC2CCN(CC(=O)N3C[C@@H](F)C[C@H]3C#N)CC2)c2cccnc12 on Recombinant human FAP (Homo sapiens)?
Solution: 1.44

====

Molecular target: recombinant human DPP8 (Homo sapiens, UniProt Q6V1X1)
Construct: purchased PBS Bioscience
Sequence (Q6V1X1 whole entry): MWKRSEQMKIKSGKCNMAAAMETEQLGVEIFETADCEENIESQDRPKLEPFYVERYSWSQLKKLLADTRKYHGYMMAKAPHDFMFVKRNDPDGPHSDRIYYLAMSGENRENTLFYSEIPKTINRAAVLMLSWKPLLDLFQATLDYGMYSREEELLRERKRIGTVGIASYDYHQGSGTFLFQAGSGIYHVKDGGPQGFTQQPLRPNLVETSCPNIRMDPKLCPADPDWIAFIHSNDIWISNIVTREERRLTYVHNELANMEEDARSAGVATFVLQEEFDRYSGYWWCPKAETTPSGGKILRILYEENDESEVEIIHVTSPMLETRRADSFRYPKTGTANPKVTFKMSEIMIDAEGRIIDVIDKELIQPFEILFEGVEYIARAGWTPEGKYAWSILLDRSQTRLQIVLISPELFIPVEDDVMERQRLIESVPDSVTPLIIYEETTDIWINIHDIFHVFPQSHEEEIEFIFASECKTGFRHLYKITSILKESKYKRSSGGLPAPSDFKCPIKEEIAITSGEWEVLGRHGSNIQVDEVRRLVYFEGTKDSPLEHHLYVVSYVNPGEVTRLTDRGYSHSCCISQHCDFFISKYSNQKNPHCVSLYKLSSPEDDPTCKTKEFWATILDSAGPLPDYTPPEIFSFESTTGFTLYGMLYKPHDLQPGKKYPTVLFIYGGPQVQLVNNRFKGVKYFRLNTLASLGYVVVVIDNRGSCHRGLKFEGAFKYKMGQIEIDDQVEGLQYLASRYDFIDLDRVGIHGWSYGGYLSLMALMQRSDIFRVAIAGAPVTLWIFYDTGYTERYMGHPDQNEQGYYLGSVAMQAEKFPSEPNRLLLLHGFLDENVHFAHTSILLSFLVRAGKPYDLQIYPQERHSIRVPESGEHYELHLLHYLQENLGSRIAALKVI
Assay: DPP8 inhibition, fluorogenic substrate Z-Ala-Pro-AMC
Format: biochemical
Conditions: 25° C., Z-Ala-Pro-AMC substrate
Param label: returns condition met when IC50 < 10 µM, returns condition not met otherwise, including exact equality.

Exercise: Given COc1ccc2nccc(O[C@H]3CCN(CC(=O)N4CC(F)(F)C[C@H]4C#N)C3)c2c1 [Example 103] , is recorded IC50 strictly lower than 10 µM?
Solution: condition met

====

Target: DPP4 (Homo sapiens, UniProt P27487)
Sequence (P27487 whole entry): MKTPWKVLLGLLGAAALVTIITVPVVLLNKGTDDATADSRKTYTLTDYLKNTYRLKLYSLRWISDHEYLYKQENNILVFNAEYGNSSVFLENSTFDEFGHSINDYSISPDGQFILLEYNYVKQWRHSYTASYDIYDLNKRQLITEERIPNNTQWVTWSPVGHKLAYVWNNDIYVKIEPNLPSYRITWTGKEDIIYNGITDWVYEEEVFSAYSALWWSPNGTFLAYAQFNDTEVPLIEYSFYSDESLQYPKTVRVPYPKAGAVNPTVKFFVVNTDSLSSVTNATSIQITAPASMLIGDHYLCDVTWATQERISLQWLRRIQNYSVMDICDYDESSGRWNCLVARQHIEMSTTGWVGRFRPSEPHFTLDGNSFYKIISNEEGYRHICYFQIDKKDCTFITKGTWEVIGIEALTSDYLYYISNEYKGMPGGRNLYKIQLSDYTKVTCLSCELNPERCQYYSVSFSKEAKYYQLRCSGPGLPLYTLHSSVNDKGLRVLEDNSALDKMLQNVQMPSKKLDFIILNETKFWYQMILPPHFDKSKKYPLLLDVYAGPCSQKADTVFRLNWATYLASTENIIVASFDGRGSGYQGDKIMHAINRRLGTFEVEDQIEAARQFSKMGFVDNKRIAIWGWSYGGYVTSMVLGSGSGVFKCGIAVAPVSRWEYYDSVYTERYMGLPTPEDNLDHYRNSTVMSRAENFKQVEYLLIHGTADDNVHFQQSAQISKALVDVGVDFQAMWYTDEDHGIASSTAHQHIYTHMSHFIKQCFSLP
Assay: DPP4 inhibition, fluorogenic substrate H-Gly-Pro-AMC
Type: biochemical
Set-up: purchased R&D Systems
Conditions: recombinant human DPP4
pIC50: −log10 of the molar value.
In this section we review reported pIC50 values for a set of compounds.

smiles-notation	endpoint-value
CN(c1cc2ccccc2cn1)C1CCN(CC(=O)N2CCC[C@H]2C#N)CC1	< 5.00
N#C[C@@H]1CCCN1C(=O)CN1CC[C@H](Nc2ccc(C(F)(F)F)c3ncccc23)C1	< 5.00
Cc1ccc2ncc(NC3CCN(CC(=O)N4C[C@@H](F)C[C@H]4C#N)CC3)cc2c1	≤ 5.00
COc1ccc2nc(C(F)(F)F)cc(OC3CCN(CC(=O)N4C[C@@H](F)C[C@H]4C#N)CC3)c2c1	< 5.00
N#C[C@@H]1CCCN1C(=O)CN1CC[C@H](Nc2ccnc3c(C(F)(F)F)cccc23)C1	< 5.00

Exercise: Which pIC50 value belongs to N#C[C@@H]1C[C@H](F)CN1C(=O)CN1CC[C@H](Nc2cccc3ncccc23)C1 ?
Solution: < 4.00

====

Entries annotated with measured log10 IC50
Target: recombinant human PREP (Homo sapiens)
Construct: purchased R&D System
Sequence (P48147 1-710): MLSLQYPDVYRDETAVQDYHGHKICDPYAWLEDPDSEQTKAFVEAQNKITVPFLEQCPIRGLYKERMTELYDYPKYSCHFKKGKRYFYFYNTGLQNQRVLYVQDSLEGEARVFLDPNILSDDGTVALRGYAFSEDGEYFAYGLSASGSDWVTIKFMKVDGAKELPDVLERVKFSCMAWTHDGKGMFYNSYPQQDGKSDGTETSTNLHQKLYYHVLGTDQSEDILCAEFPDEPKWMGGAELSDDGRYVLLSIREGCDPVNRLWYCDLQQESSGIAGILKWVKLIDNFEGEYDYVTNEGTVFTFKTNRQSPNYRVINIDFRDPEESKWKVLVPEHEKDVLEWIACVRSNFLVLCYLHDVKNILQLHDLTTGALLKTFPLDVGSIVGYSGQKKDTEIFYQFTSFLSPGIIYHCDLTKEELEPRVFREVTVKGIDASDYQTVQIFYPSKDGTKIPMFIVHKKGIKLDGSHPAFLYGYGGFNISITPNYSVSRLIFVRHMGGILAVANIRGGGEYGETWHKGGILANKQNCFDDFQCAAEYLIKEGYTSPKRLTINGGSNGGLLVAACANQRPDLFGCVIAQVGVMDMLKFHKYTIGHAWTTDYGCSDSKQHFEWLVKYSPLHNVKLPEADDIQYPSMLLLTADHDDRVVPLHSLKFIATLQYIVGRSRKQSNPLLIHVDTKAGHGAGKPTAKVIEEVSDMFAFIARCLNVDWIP
Assay: PREP inhibition, fluorogenic substrate Z-Gly-Pro-AMC
Assay type: biochemical
Settings: Inhibitory Activity (IC50, nM) PREP, recombinant human PREP
Values are log10 of IC50 in nM.

smiles-notation	experimental-system	log10 IC50
COc1cc(N[C@@H]2CCN(CC(=O)N3CCC[C@H]3C#N)C2)c2cccnc2c1	recombinant human PREP (Homo sapiens)	3.47
N#C[C@@H]1C[C@H](F)CN1C(=O)CN1CC[C@@H](Nc2ccc3ncccc3c2)C1	recombinant human PREP (Homo sapiens)	3.77
CN(c1ccc2cnccc2c1)C1CCN(CC(=O)N2CCC[C@H]2C#N)CC1	recombinant human PREP (Homo sapiens)	2.73
CN(c1ccc2ncccc2c1)C1CCN(CC(=O)N2CCC[C@H]2C#N)CC1	recombinant human PREP (Homo sapiens)	2.87
Cc1cnc2cccc(N[C@@H]3CCN(CC(=O)N4C[C@@H](F)C[C@H]4C#N)C3)c2c1	recombinant human PREP (Homo sapiens)	3.47

Exercise: So what's the measured log10 IC50 for this one? Cc1ccc(N[C@@H]2CCN(CC(=O)N3CCC[C@H]3C#N)C2)c2cccnc12
Solution: 3.78

Exercise: # iterate: N#C[C@@H]1C[C@H](F)CN1C(=O)CN1CC[C@@H](Nc2cc(F)cc3ncccc23)C1
Solution: 3.39

Exercise: Request: CN(c1ccc(OC(F)(F)F)c2ncccc12)[C@H]1CCN(CC(=O)N2C[C@@H](F)C[C@H]2C#N)C1
Solution: 3.03

Exercise: Same thing, different compound: COc1cnc2cccc(NC3CCN(CC(=O)N4C[C@@H](F)C[C@H]4C#N)CC3)c2c1
Solution: 4.00

Exercise: N#C[C@@H]1C[C@H](F)CN1C(=O)CN1CCC(Nc2ccnc3ccc(Cl)cc23)CC1 , same question.
Solution: 3.16

Exercise: Try the compound N#C[C@@H]1C[C@H](F)CN1C(=O)CN1CC[C@@H](Nc2ccnc3ccccc23)C1
Solution: 3.90

Exercise: N#C[C@@H]1C[C@H](F)CN1C(=O)CN1CCC(Oc2cccc3ncccc23)CC1 ?
Solution: 3.12

Exercise: Could you do the same for Cc1cncc2cccc(NC3CCN(CC(=O)N4C[C@@H](F)C[C@H]4C#N)CC3)c12 , please?
Solution: 3.45

Exercise: Again, but for N#C[C@@H]1C[C@H](F)CN1C(=O)CN1CC[C@H](Nc2cc(F)c3ncccc3c2)C1
Solution: 3.11
